Assay: physchem
Description: Classification of ionization constant (pKa)
property name: pKa
Just the number.

// worked examples, pKa included
// query Entry under review: Oc1nc2c(O)ccc(CCNCCOCCCOCCc3ccccc3)c2s1 . Reported pKa?
// result 8.68

// query Entry under review: O=C(CCOCCc1ccccc1)NCCNCCc1ccc(O)c2nc(O)sc12 . Reported pKa?
// result 8.75

// query Entry under review: O=S(=O)(CCCNCCc1ccc(O)c2nc(O)sc12)CCOCCc1ccccc1 . Reported pKa?
// result 9.07

// query Entry under review: Oc1nc2c(O)ccc(CCNCCCOCCOCCc3ccccc3)c2s1 . Reported pKa?
// result 9.23

// query Entry under review: O=c1[nH]c2c(O)ccc(CCNCCCSCCOCCc3ccccc3)c2s1 . Reported pKa?
// result 10.2

// query Entry under review: O=S(=O)(CCOCCc1ccccc1)NCCNCCc1ccc(O)c2nc(O)sc12 . Reported pKa?
// result 8.58

Now turn to the next compound.
// query Entry under review: O=c1[nH]c2c(O)ccc(CCNCCS(=O)(=O)CCCOCCc3ccccc3)c2s1 [SIBENADET] . Reported pKa?
// result 6.58

----------
UniProt:Q8K4Z4: reported Beta2 duration for various compounds.
Return type: number; implicit unit min.

// query Entry under review: O=S(=O)(CCCOCCc1ccc(F)cc1)CCNCCc1ccc(O)c2nc(O)sc12 . Reported Beta2 duration?
// result 67

New cases:
// query Entry under review: O=S(=O)(CCCNCCc1ccc(O)c2nc(O)sc12)CCNCCOc1ccccc1 . Reported Beta2 duration?
// result 28

----------
Beta-2 adrenergic receptor (Cavia porcellus) (UniProt Q8K4Z4): reported Beta2 duration for various compounds.
Sequence (Q8K4Z4 whole entry, looked up): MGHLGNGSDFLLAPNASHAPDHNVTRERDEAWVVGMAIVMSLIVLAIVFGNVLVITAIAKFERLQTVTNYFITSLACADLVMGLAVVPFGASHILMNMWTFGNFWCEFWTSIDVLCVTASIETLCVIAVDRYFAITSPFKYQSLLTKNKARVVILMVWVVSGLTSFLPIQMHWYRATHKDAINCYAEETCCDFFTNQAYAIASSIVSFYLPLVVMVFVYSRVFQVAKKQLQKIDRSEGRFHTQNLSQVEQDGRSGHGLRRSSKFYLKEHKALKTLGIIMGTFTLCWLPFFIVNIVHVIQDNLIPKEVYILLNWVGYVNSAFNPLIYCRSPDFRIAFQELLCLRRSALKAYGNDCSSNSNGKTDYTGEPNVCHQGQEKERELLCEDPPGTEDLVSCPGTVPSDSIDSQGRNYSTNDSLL
Return type: number; implicit unit min.

// worked examples, Beta2 duration included
// query Form entry - test system: Beta-2 adrenergic receptor (Cavia porcellus) (UniProt Q8K4Z4); read-out: Beta2 duration; compound: O=S(=O)(CCCNCCc1ccc(O)c2nc(O)sc12)NCCOCCc1cccc(Cl)c1
// result 180

// query Form entry - test system: Beta-2 adrenergic receptor (Cavia porcellus) (UniProt Q8K4Z4); read-out: Beta2 duration; compound: O=C(CCCOCCc1ccccc1)NCCNCCc1ccc(O)c2nc(O)sc12
// result 71

// query Form entry - test system: Beta-2 adrenergic receptor (Cavia porcellus) (UniProt Q8K4Z4); read-out: Beta2 duration; compound: [O-][S+](CCCNCCc1ccc(O)c2nc(O)sc12)CCOCCc1ccccc1 (stereo not given)
// result 84

Now turn to the next compound.
// query Form entry - test system: Beta-2 adrenergic receptor (Cavia porcellus) (UniProt Q8K4Z4); read-out: Beta2 duration; compound: C[C@@H](Cc1ccccc1)OCCCS(=O)(=O)CCNCCc1ccc(O)c2nc(O)sc12
// result 180

----------
Biological target: Beta-2 adrenergic receptor (Cavia porcellus)
Conditions: Trachea
Description: Beta-2-adrenoceptor potency was determined in rings of guinea-pig isolated trachea
Documented p[A]50 across a set of molecules

// query Entry under review: Oc1nc2c(O)ccc(CCNCCCCCOCCc3ccccc3)c2s1 . Reported p[A]50?
// result 7.8

New cases:
// query Entry under review: O=S(=O)(CCCOCCCc1ccccc1)CCNCCc1ccc(O)c2nc(O)sc12 . Reported p[A]50?
// result 7.35

----------
Documented p[A]50 across a set of molecules
Molecular target: Beta-2 adrenergic receptor (Cavia porcellus)
Details: Trachea
Just the number.

// query Form entry - test system: Beta-2 adrenergic receptor (Cavia porcellus); read-out: p[A]50; molecule: CC(CCCCCOCCc1ccccc1)NCCc1ccc(O)c2nc(O)sc12 (stereo not drawn)
// result 8.08

// query Form entry - test system: Beta-2 adrenergic receptor (Cavia porcellus); read-out: p[A]50; molecule: O=S(=O)(CCCNCCc1ccc(O)c2nc(O)sc12)CCNCCOc1ccccc1
// result 6.73

// query Form entry - test system: Beta-2 adrenergic receptor (Cavia porcellus); read-out: p[A]50; molecule: O=S(=O)(CCOCCc1ccccc1)NCCNCCc1ccc(O)c2nc(O)sc12
// result 7.39

// query Form entry - test system: Beta-2 adrenergic receptor (Cavia porcellus); read-out: p[A]50; molecule: O=S(=O)(CCCOCCc1ccc(Br)cc1)CCNCCc1ccc(O)c2nc(O)sc12
// result 7.4

// query Form entry - test system: Beta-2 adrenergic receptor (Cavia porcellus); read-out: p[A]50; molecule: O=C(CCOCCCc1ccccc1)NCCNCCc1ccc(O)c2nc(O)sc12
// result 8.63

New cases:
// query Form entry - test system: Beta-2 adrenergic receptor (Cavia porcellus); read-out: p[A]50; molecule: O=S(=O)(CCCNCCc1ccc(O)c2nc(O)sc12)CCSCCc1ccccc1
// result 7.57

// query Form entry - test system: Beta-2 adrenergic receptor (Cavia porcellus); read-out: p[A]50; molecule: Oc1nc2c(O)ccc(CCNCCCCCOCCCc3ccccc3)c2s1
// result 7

----------
Documented Beta2 duration across a set of compounds
Molecular target: Beta-2 adrenergic receptor (Cavia porcellus)
Return type: number; implicit unit min.

// query Form entry - test system: Beta-2 adrenergic receptor (Cavia porcellus); read-out: Beta2 duration; compound: O=S(=O)(CCCOCCc1nccs1)CCNCCc1ccc(O)c2nc(O)sc12
// result 45

// query Form entry - test system: Beta-2 adrenergic receptor (Cavia porcellus); read-out: Beta2 duration; compound: Nc1ccccc1CCOCCS(=O)(=O)CCCNCCc1ccc(O)c2nc(O)sc12
// result 33

// query Form entry - test system: Beta-2 adrenergic receptor (Cavia porcellus); read-out: Beta2 duration; compound: O=C(CCCCCNCCc1ccc(O)c2nc(O)sc12)NCCc1ccccc1
// result 22

----------
Documented pKa across a set of compounds
Assay: physchem
Description: Ionization constant (pKa)

// worked examples, pKa included
// query Entry under review: Cc1cnc(CCOCCCS(=O)(=O)CCNCCc2ccc(O)c3nc(O)sc23)s1 . Reported pKa?
// result < 8

// query Entry under review: O=S(=O)(CCCNCCc1ccc(O)c2nc(O)sc12)NCCOCc1ccccc1 . Reported pKa?
// result > 8

// query Entry under review: O=S(=O)(CCCNCCc1ccc(O)c2nc(O)sc12)CCOCCOc1ccccc1 . Reported pKa?
// result > 8

// query Entry under review: O=C(NCCCCCCNCCc1ccc(O)c2nc(O)sc12)Nc1ccccc1 . Reported pKa?
// result > 8

// query Entry under review: Oc1nc2c(O)ccc(CCNCCSCCCOCCCc3ccccc3)c2s1 . Reported pKa?
// result > 8

New cases:
// query Entry under review: N#Cc1ccc(CCOCCCS(=O)(=O)CCNCCc2ccc(O)c3nc(O)sc23)cc1 . Reported pKa?
// result < 8

// query Entry under review: O=S(=O)(CCCNCCc1ccc(O)c2nc(O)sc12)CCOCCc1ccccc1 . Reported pKa?
// result > 8

// query Entry under review: CC(C)(CCCCOCCc1ccc(O)cc1)CNCCc1ccc(O)c2nc(O)sc12 . Reported pKa?
// result > 8

// query Entry under review: Oc1nc2c(O)ccc(CCNCCSCCCOCCc3ccccn3)c2s1 . Reported pKa?
// result > 8

// query Entry under review: O=S(=O)(CCCNCCc1ccc(O)c2nc(O)sc12)NCCOCCc1cccc(C(F)(F)F)c1 . Reported pKa?
// result > 8

// query Entry under review: O=S(=O)(CCOCc1cccc2ccccc12)NCCCNCCc1ccc(O)c2nc(O)sc12 . Reported pKa?
// result > 8

// query Entry under review: O=C(CCOCCCc1ccccc1)NCCNCCc1ccc(O)c2nc(O)sc12 . Reported pKa?
// result > 8

// query Entry under review: NC(=O)c1ccc(CCOCCCS(=O)(=O)CCNCCc2ccc(O)c3nc(O)sc23)cc1 . Reported pKa?
// result < 8

// query Entry under review: Oc1nc2c(O)ccc(CCNCCCOCCSCCc3ccccc3)c2s1 . Reported pKa?
// result > 8

// query Entry under review: O=C(CCOCCc1ccccc1)NCCNCCc1ccc(O)c2nc(O)sc12 . Reported pKa?
// result > 8

// query Entry under review: CC(CCCCCOCCc1ccccc1)NCCc1ccc(O)c2nc(O)sc12 (configuration not stated) . Reported pKa?
// result > 8

// query Entry under review: O=S(=O)(CCCOCCc1ccc(F)cc1)CCNCCc1ccc(O)c2nc(O)sc12 . Reported pKa?
// result < 8

----------
Assay: physchem
Conditions: octanol/water, pH 7.4, logD
Documented logD across a set of compounds
Just the number.

// worked examples, logD included
// query Entry under review: O=S(=O)(Nc1ccc(CCOCCCSCCNCCc2ccc(O)c3nc(O)sc23)cc1)c1ccccc1 . Reported logD?
// result 3.52

// query Entry under review: O=S(=O)(CCCNCCc1ccc(O)c2nc(O)sc12)CCNCCOc1ccccc1 . Reported logD?
// result 0.9

// query Entry under review: O=S(=O)(CCCNCCc1ccc(O)c2nc(O)sc12)CCOCCc1cccc2ccccc12 . Reported logD?
// result 2.54

// query Entry under review: O=S(=O)(CCCOCCc1ccccn1)CCNCCc1ccc(O)c2nc(O)sc12 . Reported logD?
// result 0.95

// query Entry under review: Cc1ncsc1CCOCCCS(=O)(=O)CCNCCc1ccc(O)c2nc(O)sc12 . Reported logD?
// result 1.44

// query Entry under review: C[C@@H](COCCCS(=O)(=O)CCNCCc1ccc(O)c2nc(O)sc12)c1ccccc1 . Reported logD?
// result 2.32

// query Entry under review: O=S(=O)(CCCNCCc1ccc(O)c2nc(O)sc12)CCOCc1ccccc1 . Reported logD?
// result 1.15

// query Entry under review: O=[N+]([O-])c1ccc(CCOCCCS(=O)(=O)CCNCCc2ccc(O)c3nc(O)sc23)cc1 . Reported logD?
// result 2.32

New cases:
// query Entry under review: O=c1[nH]c2c(O)ccc(CCNCCS(=O)(=O)CCCOCCc3ccccc3)c2s1 . Reported logD?
// result 2.51

// query Entry under review: Oc1nc2c(O)ccc(CCNCCCOCCSCCc3ccccc3)c2s1 . Reported logD?
// result 1.73

// query Entry under review: [O-][S+](CCCNCCc1ccc(O)c2nc(O)sc12)CCOCCc1ccccc1 (stereo unspecified) . Reported logD?
// result 1.12

// query Entry under review: O=S(=O)(CCCOCCCCc1ccccc1)CCNCCc1ccc(O)c2nc(O)sc12 . Reported logD?
// result 3.62

// query Entry under review: O=C(CCOCCc1ccccc1)NCCNCCc1ccc(O)c2nc(O)sc12 . Reported logD?
// result 1.34

// query Entry under review: Cc1cc(C)cc(CCOCCS(=O)(=O)NCCNCCc2ccc(O)c3nc(O)sc23)c1 . Reported logD?
// result 2.59

// query Entry under review: CSc1cccc(CCOCCS(=O)(=O)CCCNCCc2ccc(O)c3nc(O)sc23)c1 . Reported logD?
// result 1.63
